Biological target: human recombinant HPK1 (Homo sapiens, UniProt Q92918)
Sequence (Q92918 whole entry): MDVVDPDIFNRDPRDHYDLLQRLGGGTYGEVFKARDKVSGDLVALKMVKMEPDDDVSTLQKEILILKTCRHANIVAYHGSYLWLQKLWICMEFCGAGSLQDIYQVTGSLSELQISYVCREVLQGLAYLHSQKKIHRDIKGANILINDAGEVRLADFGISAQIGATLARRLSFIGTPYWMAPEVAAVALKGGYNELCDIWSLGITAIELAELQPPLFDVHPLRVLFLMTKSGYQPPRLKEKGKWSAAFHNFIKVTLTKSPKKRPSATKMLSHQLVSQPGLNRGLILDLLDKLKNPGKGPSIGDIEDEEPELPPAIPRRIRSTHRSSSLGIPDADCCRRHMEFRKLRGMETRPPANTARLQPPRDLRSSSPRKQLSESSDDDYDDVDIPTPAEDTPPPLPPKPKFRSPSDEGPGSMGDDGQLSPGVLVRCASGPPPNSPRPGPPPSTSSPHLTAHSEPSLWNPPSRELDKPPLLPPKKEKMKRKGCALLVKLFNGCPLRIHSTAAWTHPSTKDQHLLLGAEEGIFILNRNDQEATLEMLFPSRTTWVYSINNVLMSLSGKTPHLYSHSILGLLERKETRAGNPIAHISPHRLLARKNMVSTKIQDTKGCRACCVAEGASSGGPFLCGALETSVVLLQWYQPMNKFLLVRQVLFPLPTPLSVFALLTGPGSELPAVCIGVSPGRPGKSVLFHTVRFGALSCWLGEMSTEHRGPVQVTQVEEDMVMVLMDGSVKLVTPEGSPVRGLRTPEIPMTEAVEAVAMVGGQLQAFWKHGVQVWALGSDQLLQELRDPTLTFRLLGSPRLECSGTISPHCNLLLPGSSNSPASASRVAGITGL
Assay: Inhibitory activity against human recombinant HPK1 (TR-FRET)
Settings: ULight-p70S6K peptide, ATP at Km, room temperature, 1 hour, 0.32 to 1000 nM compound
pIC50: −log10 of the molar value. Where a name gives a salt, the structure may show the parent alone.
experimental-readout: pIC50

# example entries with known answers
- compound: "COC(=O)C(C)(C)n1cc(-c2cnc(Nc3ccnc(-c4c(F)cccc4OC)n3)cc2N2CCC[C@H](N)C2)cn1 [Example 278, hydrochloride]"
  target-entity: "human recombinant HPK1 (Homo sapiens, UniProt Q92918)"
  pIC50: "≥ 8.00"
- compound: "COc1cccc(F)c1-c1nccc(Nc2cc(N3CCC[C@H](O)C3)c(C(=O)N[C@@H]3CCN(C)C3)cn2)n1 [Example 192]"
  target-entity: "human recombinant HPK1 (Homo sapiens, UniProt Q92918)"
  pIC50: "7.30 to 8.00"

Incoming: Give its pIC50 value. Item: COc1cccc(F)c1-c1nc(Nc2cc(N3CCC[C@H](O)C3)c(C(=O)N[C@@H]3CC[C@H]3O)cn2)ccc1[N+](=O)[O-] [Example 197]
Outgoing: ≥ 8.00

###

We begin with a simple list: items and their reported IC50.
Molecular target: human recombinant HPK1 (Homo sapiens)
Assay: Inhibitory activity against human recombinant HPK1 (TR-FRET)
Conditions: ULight-p70S6K peptide, ATP at Km, room temperature, 1 hour, 0.32 to 1000 nM compound
Where a name gives a salt, the structure may show the parent alone.

# example entries with known answers
- molecule: "COc1cccc(F)c1-c1nccc(Nc2cc(N3CCC[C@H](N)C3)c(-c3ccc4c(c3)OCC(=O)N4)cn2)n1 [Example 260, hydrochloride]"
  experimental-readout: "IC50"
  recorded-result: "≤ 10 nM"
- molecule: "COc1cccc(F)c1-c1nccc(Nc2cc(N3CCC[C@H](O)C3)c(-c3ccc4nncn4c3)cn2)n1"
  experimental-readout: "IC50"
  recorded-result: "50 to 100 nM"
- molecule: "COc1cccc(F)c1-c1nccc(Nc2cc(N3CCC[C@H](N)C3)c(-c3cccc(C(=O)N(C)C)c3)cn2)n1 [Example 280, hydrochloride]"
  experimental-readout: "IC50"
  recorded-result: "≤ 10 nM"

Incoming: Give its IC50 value. Item: COc1cccc(F)c1-c1nc(Nc2cc(N3CCC[C@H](N)C3)c(-c3cnn(C4CCOCC4)c3)cn2)ccc1[N+](=O)[O-] [Example 70, hydrochloride]
Outgoing: ≤ 10 nM

Incoming: Give its IC50 value. Item: COc1cccc(F)c1-c1nccc(Nc2cc(N3CCC[C@H](N)C3)c(-c3ccc(N4CCOCC4)nc3)cn2)n1 [Example 121, hydrochloride]
Outgoing: ≤ 10 nM

Incoming: Give its IC50 value. Item: O[C@H]1CCCN(c2cc(Nc3ccnc(-c4cnn5ccccc45)n3)ncc2-c2cnn(C3CCOCC3)c2)C1
Outgoing: 10 to 50 nM

###

Molecular target: human recombinant HPK1 (Homo sapiens)
Assay: Inhibitory activity against human recombinant HPK1 (TR-FRET)
Conditions: ULight-p70S6K peptide, ATP at Km, room temperature, 1 hour, 0.32 to 1000 nM compound
Where a name gives a salt, the structure may show the parent alone.
We begin with a simple list: items and their reported IC50.

- compound: "COc1cccc(F)c1-c1nccc(Nc2cc(N3CCC[C@H](N)C3)c(-c3ccc(C4CCNCC4)nc3)cn2)n1 [Example 248, hydrochloride]"
  IC50: "≤ 10 nM"
- compound: "COc1cc(F)cc(F)c1-c1nccc(Nc2cc(N3CCC[C@](C)(N)C3)c(-c3cnn(C(F)F)c3)cn2)n1 [Example 212, hydrochloride]"
  IC50: "≤ 10 nM"
- compound: "COc1cccc(F)c1-c1nccc(Nc2cc(N3CCC(C(C)(C)CO)CC3)c(-c3cnn(C4CCOCC4)c3)cn2)n1"
  IC50: "≤ 10 nM"
- compound: "COc1cccc(F)c1-c1nccc(Nc2cc(N3CC[C@H](CO)[C@@H](O)C3)c(-c3cnn(C4CCOCC4)c3)cn2)n1"
  IC50: "≤ 10 nM"
- compound: "COc1cccc(F)c1-c1nccc(Nc2cc(N3CCC[C@H](N)C3)c(-c3cccc(C(C)=O)c3)cn2)n1 [Example 291, hydrochloride]"
  IC50: "≤ 10 nM"

Then this compound:
Incoming: For the record COC(=O)c1ccc(Nc2cc(N3CCC[C@H](N)C3)c(-c3cnn(C4CCOCC4)c3)cn2)nc1-c1c(F)cccc1OC [Example 71, hydrochloride] , what value of IC50 is listed for human recombinant HPK1 (Homo sapiens)?
Outgoing: ≤ 10 nM

###

Biological target: human recombinant HPK1 (Homo sapiens)
Test: Inhibitory activity against human recombinant HPK1 (TR-FRET)
Details: ULight-p70S6K peptide, ATP at Km, room temperature, 1 hour, 0.32 to 1000 nM compound
pIC50: −log10 of the molar value. Where a name gives a salt, the structure may show the parent alone.
experimental-readout: pIC50

# example entries with known answers
- compound: "COc1cccc(F)c1-c1nccc(Nc2cc(N3CCC[C@H](N)C3)c(-c3ccc(N(C)C)nc3)cn2)n1 [Example 118, hydrochloride]"
  pIC50: "≥ 8.00"
- compound: "COc1cccc(F)c1-c1nccc(Nc2cc(N3CCC[C@H](N)C3)c(-c3ccc(C(=O)N4CCN(CCO)CC4)cc3)cn2)n1 [Example 288, hydrochloride]"
  pIC50: "≥ 8.00"

Then this compound:
Incoming: Give its pIC50 value. Item: COc1cccc(F)c1-c1nccc(Nc2cc(N3C[C@@H](N)C[C@H](F)C3)c(-c3cnn(C(F)F)c3)cn2)n1 [Example 304, hydrochloride]
Outgoing: ≥ 8.00

###

Target: human recombinant HPK1 (Homo sapiens, UniProt Q92918)
Assay: Inhibitory activity against human recombinant HPK1 (TR-FRET)
Conditions: ULight-p70S6K peptide, ATP at Km, room temperature, 1 hour, 0.32 to 1000 nM compound
Protocol: Test Example: Evaluation of Inhibitory Activity Against Human Recombinant HPK1 The inhibitory activity against human recombinant HPK1 was evaluated using the Time-Resolved Fluorescence Resonance Energy Transfer (TR-FRET) technology of Perkin-Elmer. […] The signals of TR-FRET at excitation wavelength (320 nm) and emission wavelength (665 nm) were detected using a microplate reader (Envision Multilabel Reader, Perkin-Elmer). […]
pIC50: −log10 of the molar value. Structures can show the parent of a compound that is named as a salt.
We begin with a simple list: items and their reported pIC50.

# example entries with known answers
- molecule: "COc1cc(F)cc(F)c1-c1nc(Nc2cc(N3CCC[C@H](O)C3)c(-c3cnn(C(F)F)c3)cn2)ccc1N"
  target-entity: "human recombinant HPK1 (Homo sapiens, UniProt Q92918)"
  pIC50: "≥ 8.00"
- molecule: "COc1cccc(F)c1-c1nc(Nc2cc(N3CC[C@@H](C)[C@H](N)C3)c(-c3cnn(C(F)F)c3)cn2)ccc1C#N [Example 337, hydrochloride]"
  target-entity: "human recombinant HPK1 (Homo sapiens, UniProt Q92918)"
  pIC50: "≥ 8.00"
- molecule: "COc1cc(F)cc(F)c1-c1nc(Nc2cc(N3CCC[C@H](O)C3)c(-c3cnn(C(F)F)c3)cn2)ccc1[N+](=O)[O-]"
  target-entity: "human recombinant HPK1 (Homo sapiens, UniProt Q92918)"
  pIC50: "≥ 8.00"

Incoming: For the record CNC(=O)c1cc(F)c(-c2nccc(Nc3cc(N4CCC[C@H](N)C4)c(-c4cnn(C(F)F)c4)cn3)n2)c(OC)c1 [Example 186, hydrochloride] , what value of pIC50 is listed for human recombinant HPK1 (Homo sapiens, UniProt Q92918)?
Outgoing: ≥ 8.00

Incoming: For the record COc1cccc(F)c1-c1nccc(Nc2cc(N3CCC[C@H](N)C3)c(C#CC3CCOCC3)cn2)n1 [Example 79, hydrochloride] , what value of pIC50 is listed for human recombinant HPK1 (Homo sapiens, UniProt Q92918)?
Outgoing: ≥ 8.00

Incoming: For the record COc1cc(F)cc(F)c1-c1nccc(Nc2cc(N3C[C@@H](C)C[C@H](N)C3)c(-c3cnn(C(F)F)c3)cn2)n1 [Example 210, hydrochloride] , what value of pIC50 is listed for human recombinant HPK1 (Homo sapiens, UniProt Q92918)?
Outgoing: ≥ 8.00

Incoming: For the record CN[C@H]1CCCN(c2cc(Nc3ccnc(-c4c(F)cccc4OC)n3)ncc2-c2cnn(C(F)F)c2)C1 [Example 122, hydrochloride] , what value of pIC50 is listed for human recombinant HPK1 (Homo sapiens, UniProt Q92918)?
Outgoing: ≥ 8.00

###

Target: human recombinant HPK1 (Homo sapiens, UniProt Q92918)
Experiment: Inhibitory activity against human recombinant HPK1 (TR-FRET)
Settings: ULight-p70S6K peptide, ATP at Km, room temperature, 1 hour, 0.32 to 1000 nM compound
Structures can show the parent of a compound that is named as a salt.
We begin with a simple list: items and their reported IC50.

# example entries with known answers
- compound: "COc1cc(F)cc(F)c1-c1nccc(Nc2cc(N3CCC[C@H](N)C3)c(C#CCCO)cn2)n1"
  IC50: "≤ 10 nM"
- compound: "COc1cccc(F)c1-c1nccc(Nc2cc(N3CCC[C@H](N)C3)c(-c3cnn(CC(F)(F)F)c3)nn2)n1 [Example 175, hydrochloride]"
  IC50: "≤ 10 nM"
- compound: "COc1cccc(F)c1-c1nc(Nc2cc(N3CCC[C@H](O)C3)c(C(N)=O)cn2)ccc1[N+](=O)[O-]"
  IC50: "≤ 10 nM"

Then this compound:
Incoming: Give its IC50 value. Item: COc1cccc(F)c1-c1nccc(Nc2cc(N3CCC[C@H](N)C3)c(-c3ccc(C(=O)N(C)C)c(F)c3)cn2)n1 [Example 290, hydrochloride]
Outgoing: ≤ 10 nM
